B1: TPR t1 (parent)
chain: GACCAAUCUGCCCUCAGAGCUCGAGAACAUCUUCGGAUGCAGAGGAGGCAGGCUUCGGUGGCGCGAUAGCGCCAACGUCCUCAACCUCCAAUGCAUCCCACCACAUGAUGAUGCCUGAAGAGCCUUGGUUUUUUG

variants of: B1; assay: polymerase ribozyme fitness, log enrichment relative to wild type (log ratio); higher = more active; in vitro selection for triplet polymerase activity
Quantity name: polymerase ribozyme fitness (log ratio)

seq_text="GACCAAUCUUCCCUCAGAGCUCGAGAACAUCUUCGGAUGCAGAGGAGGCAGGCUUCGGUGGCGCGAUAGCGCCAACGUCCUCUACCUCCAAUGCAUCCCACCACAUGAUGAUGCCUGAAGAGCCUUGGUUUUUUG [G10U A83U]" observed_measurement=-0.308
seq_text="GACCAAUCUGCCCUCAGAGCUCGAGAACAUCUUCGGAUGCAGAGGAGGCAGGCUUCGGUGGCGCGAUAGCGCCAACGUCCUCAACCUCCAAUGAAUCCCACCACAUGAUGAUGCCUGAAGAGCCUUGGCUUUUUG [C94A U129C]" observed_measurement=-0.753
seq_text="GACCAAUCUGCCCUCAGAGCUCGGGAACAUCUUCGGAUGCAGAGGAGGCAGGCUUCGGUGGCGCGAUAGCGCCAACGUCCUCAACCUCCAAUGCAUCCCACUACAUGAUGAUGCCUGAAGAGCCUUGGUUUUUUG [A24G C102U]" observed_measurement=-3.7
seq_text="GACCAAUCUGCCCUCAGAGCUCGAGAACAUCUUCGGAUGCAGAGGCGGCAGGCUUCGGUGGCGCGAUAGCGCCAACGUCCUCAACCUCCAAUGCAUCCCACCACAUGACGAUGCCUGAAGAGCCUUGGUUUUUUG [A46C U109C]" observed_measurement=-6.47
seq_text="GACCAAUCUGCCCUCAGAGCUCGAGAACAUCUUCGGAUGCAGAGGAGGCAGGCUUCGGUGGCGCGAUAGCGCCAACGGCCUCAACCUCAAAUGCAUCCCACCACAUGAUGAUGCCUGAAGAGCCUUGGUUUUUUG [U78G C89A]" observed_measurement=-3.29
seq_text="GACCAAUCUGCCCUCAGAGCUCGAGAUCAUCUUCGGAUGCAGAGGAGGCAGGGUUCGGUGGCGCGGUAGCGCCAACGUCCUCAACCUCCAAUGCAUCCCACCACAUGAUGAUGCCUGAAGAGCCUUGGUUUUUUG [A27U C53G A66G]" observed_measurement=-4.36
seq_text="GACCAAUAUGCCCUCAGAGCUCGAGAACAUCUUCGGAUGCUGAGGAGGCAGGCUUCGGUGACGCGAUAGCGCCAACGUCCUCAACAUCCAAUGCAUCCCACCACAUGAUGAUGCCUGAAGAGCCUUGGUUUUUUG [C8A A41U G61A C86A]" observed_measurement=-1.24
seq_text="GACCAAUCUGCCCUCAGAGCUCGAGGACAUCUUCGGAUGCAGAGGAGGCAGGCUUCGGUGGCGCGAUAGCGCCAACGUCCUCAACCUCCAAUGCAUCCCACCACAUGAUGAUGCCUGAAGAGGUUUGGUUUUUUU [A26G C123G C124U G135U]" observed_measurement=-1.25
seq_text="GACCAAUCUGCCCUCAGAGCUCGAGAACAUCUUCGGAUGCAGAGGAGGCAGGGUUCGGUGGCGCGAUAGCGCCAACGUCCUCAACCUCCAAUGCAUCCCACCACAUGAUGAUGCCCGAAGAGCCUUGGUUUUUUG [C53G U116C]" observed_measurement=-1.68
seq_text="GAUCAAUCUGCCCUCAGAGCUCAAGAACAUCUUCGGAUUCAGAGGAGCCAGGCUUCGGUGGCGCGAUGGCGCCAACGUCCUCAACCUCCAAUGCAUCCUACCACAUGAUGAUGACUGAAGAGCCUUGGUUUUUUG [C3U G23A G39U G48C A68G C99U C114A]" observed_measurement=-5.71
seq_text="GACCAAUCUGCCCUCAGAGCUCGAGAACAUCUUCGGAUGCGGAGGUGGCAGGCUUCGGUGGCGCGAUAGCGCCAACGUCCUCAACCUCCAAUGCAUCCCACCACAUGAUGAUGCCUGAAGAGCCUUGGUUUUUUG [A41G A46U]" observed_measurement=-3.31
seq_text="GACCAAUCUGCCCUCAGAGUUCGAGAACAUCUUCGGAUGCAUAGGAGGCAGGCUUCGGUGGCGCGAUAGCGCUAACGUCCUCAACCUCCAAUGCAUCCCACCACAUGAUGAUGCCUGAAGAGCCUUGGUUUUUUG [C20U G42U C73U]" observed_measurement=-2.41
seq_text="GACCAAUCUGCCCUCAGAGCUCGAGAACAUCUUCGGAUGCAGAGGAGGCAGGCUUCGGUGGCGCGAUAGCACCAACGUGCUCAACCUCCAAUGCAUCCCACCACAUGAUGAUGCCUGAAGAGCCUUAGUUUUUUG [G71A C79G G127A]" observed_measurement=-3.33
seq_text="GACCAAGCUGCCCUCAGAGCUCGAGAACAUCUUCGGAUGCAGAGGAGGCAGGCUUCGGUGGCGCGAUAGCGCCAACGCCCUCAACCUCCAAUGCAUCCCACCACAUGAUGAUGCCUGAAGAGCCUUGGUUUUUUG [U7G U78C]" observed_measurement=0.451
seq_text="GACCAAUCUGCCCUCAGAGCUCGAGAACAUCUUCGGAUGCAGAGGAGGCAGGCUUCGGUGGCGCGAUAGCGCCAACGCCCUCAACCUCCAAUGCAUCCCACCACAUGAUGUUGCCUGAAGAGCCUUGGUUUUUUG [U78C A111U]" observed_measurement=-2.5
seq_text="GACCAAUCUCCCCUCAGUGCUCGAGAACAUCUUCGGAUGCAGAGGAGGCAGGCUUCGGUGGCGCGAUAGCGCCAACGUCCUCAACCUCCAAUGCAUCCCACCACAUGAUGAUGCCUGAAGAGCCUUGGUUUUUUG [G10C A18U]" observed_measurement=-3.34
seq_text="GCCCAAUCUGCCCUCAGAGCUCGAGAACAUCUUCGGAUGCAGAGGAGGCAGGCUUCGGUGGCGCGAUAGCGCCAACGUCCUCUACCUCCAAUGCAUCCCACCACAUGAUGAUGCCUGAAGAGCCUUGGUUUUUUG [A2C A83U]" observed_measurement=-1.1
seq_text="GACCAAUCUGCCCUCAGAGCUCGAGAACAUCUUCGGAUGCAGAGGAGGCAGGCUGCGGUGGCGCGAUAGGGCCAACGUCCUCAACCUCCAAUGCAUCCCCCCACAUGAUGAUGCCUGAAGAGCCUUGGUUUUUUG [U55G C70G A100C]" observed_measurement=-3.29
seq_text="GACCAAUCUGCCCUCAGAGCUCGAGAACAUCUUCGGAUGCAGAGGAGGCAGGCUUAGGUGGCGCGAUAGUGCCAACGUCCUCAACCUCCAAUGCAUCCCACCACAUGAUGAUGCCUGAAGAGCCUUGGUUUUUUG [C56A C70U]" observed_measurement=-0.609
seq_text="GACCAAUCUGCCCUCAGAGCUCGAGAACAUCUUCGGAUGCAGAGGAGGCAGGCUUAGGUGGCGCGAUAGCGCCAACGUCCUCAACCUCCAAUGCAUCCCACCACAUGAUGAAGCCUGAAAAGCCUUGGUUUUUUU [C56A U112A G120A G135U]" observed_measurement=-2.22
seq_text="GACCAAUCUGCCCUCAGGCCUCGAGAACAUCUUCGGAUGCAGAGGAGGCAGGUUUCGGUGGCGCGAUAGCGCCAACGUCCUCAACCUCCAAUGCAUCCCACCACAUGAUGUUGCCUGAAGAGCCUUGGUUUUUUG [A18G G19C C53U A111U]" observed_measurement=-4.72
seq_text="GACCACUCUGCCCUCAGCGCUCGAGAACAUCUUCGGAUGCAGAGGAGGCAGGCUUCGGUUGCGCGAUAGCGCCAACGUCCUGAACCUCCAAUGCAUCCCACCACAUGAUGAUGCCUGAAGAGCCUUUGUUUUUUG [A6C A18C G60U C82G G127U]" observed_measurement=-5.44

Where do the numbers come from? From the RNAGym collection of RNA variant scans (doi:10.1073/pnas.2313332121).
